run description: Kinetic solubility in liquid formulation containing mannitol and glycine buffer
Type: physicochemical
experimental conditions: IV vehicle: 50 mM glycine sodium, 4% mannitol, 5 °C, pH 8.8, aqueous buffer, thermodynamic from solid, 5° C., pH 8.8, Day 1
metric name: solubility kinetic at 1 day
Number plus unit, in that order.

Exercise: # solubility kinetic at 1 day lookup, item CNc1cc2[nH]c(=O)n(-c3ccc(NC(=O)NS(=O)(=O)c4ccc(Cl)s4)cc3)c(=O)c2cc1F [Elinogrel potassium (Form B)]
Solution: 5480 µg/mL
